# System: SW-620
# test description: NCI tumour cell line growth inhibition, 48 h
Calls of active or inactive are those of the source. Rule as the data show it: active = GI50 up to about 1.1 µM and inactive = higher.
The reply should name one outcome from active, inactive

{"columns": ["molecule", "group label"],
 "data": [
  ["C=C1C(=O)O[C@@H]2C[C@@H](C)[C@@H]3C=CC(=O)[C@@]3(C)[C@@H](OC(=O)CCCC(=O)O[C@H]3[C@@H]4C(=C)C(=O)O[C@@H]4C[C@@H](C)[C@@H]4C=CC(=O)[C@]43C)[C@H]12", "active"],
  ["CC(SC(=S)Nc1cccc(F)c1)C(=O)O (stereo not drawn)", "inactive"]
]}

Now look at this entry.
How did this test come out for O=C(NC(=S)Nc1ccccc1)c1ccc([N+](=O)[O-])cc1 ?
inactive

====

# Test system: OVCAR-8
# test description: NCI tumour cell line growth inhibition, 48 h
Activity calls are given as the source filed them. Rule as the data show it: active = GI50 up to about 1.1 µM and inactive = higher.
Kindly state GI50 for each of the entries shown.

{"columns": ["compound", "GI50"],
 "data": [
  ["COc1ccc(N(C(=O)Nc2ccc(Cl)c(Cl)c2)C2c3cccn3C(=O)N2c2ccc(Cl)c(Cl)c2)cc1 (stereo not drawn)", "> 100 µM (inactive)"],
  ["O=c1[nH]c(-n2[nH]c3c(c2=O)CCCC3)nc(O)c1-c1ccccc1", "> 100 µM (inactive)"],
  ["O=C1NC(N2CCOCC2)=N/C1=C\\c1cccs1", "> 100 µM (inactive)"],
  ["COC(=O)c1ccc(/N=N/N(C)COc2ccc(C#N)cc2)cc1", "> 100 µM (inactive)"],
  ["COC(=O)C1=C(O)C(C(=O)OC)[C@]2(O)[C@H](C(=O)OC)[C@H]1C[C@@H](c1ccc([N+](=O)[O-])cc1)[C@H]2C(=O)OC (stereo partly drawn)", "17.6 µM (inactive)"],
  ["CN(CCN1CCCC1)C1CCc2cc(Cl)c(Cl)cc2C1 (stereo not drawn)", "16.2 µM (inactive)"],
  ["Cc1cc2c(O)nc(N)nc2nc1C", "> 100 µM (inactive)"]
]}

Endpoint output: GI50 of CCOC(=O)C1N(S(=O)(=O)c2ccc(C)cc2)CCC12c1ccccc1NC2c1ccc(OC)c(OC)c1 (stereo not drawn) . Value?
> 100 µM (inactive)

====

I'd be grateful if you could share measured GI50 for these entries.
# System: OVCAR-3
# test description: NCI tumour cell line growth inhibition, 48 h
Calls of active or inactive are those of the source. No stated cut-off is given here; in the data, active = GI50 up to about 1.1 µM and inactive = higher.

{"columns": ["compound", "metric name", "result"],
 "data": [
  ["NC(=O)NC(CC(=O)O)C(=O)O (stereo not given)", "GI50", "> 100 µM (inactive)"],
  ["COC(=O)c1nn(-c2ccccc2)c(=O)cc1N=[N+]=[N-]", "GI50", "> 100 µM (inactive)"],
  ["CSC(C1c2ccccc2N(c2ccc(C)cc2)c2[nH]c(=O)n(C)c(=O)c21)S(=O)(=O)c1ccc(C)cc1 (stereo not given)", "GI50", "> 100 µM (inactive)"]
]}

Parameters: items (list). Returns: GI50 for each item.
1. CC(N)Cc1cccc(C(F)(F)F)c1 (stereo not given)
2. C=CCCC1(CC(Sc2ccccc2)P(=O)(c2ccccc2)c2ccccc2)OCCO1 (stereo not given)
3. C=C1C[C@@H]2O[C@H]3[C@H]4[C@@H](C[C@@H](C)[C@@H](OC(C)=O)[C@H]42)[C@@H](C)CO[C@@]3(C)[C@H](OC(C)=O)C[C@H]1O
4. COC(=O)C1=C(C(=O)Nc2cccnc2Cl)N(c2ccc(OC)cc2[N+](=O)[O-])C(c2ccc(C)cc2)=CC1c1ccc(OC)cc1OC (stereo not given)
5. N#C/C(=C/NC(N)=S)C(N)=O

> 100 µM (inactive)
> 10 µM (inactive)
65.2 µM (inactive)
8.57 µM (inactive)
> 100 µM (inactive)

// each compound listed below needs its GI50
1. COC(=O)CCC(=O)c1ccc2c(c1)CCC2
2. Cc1ccc(C2=NO[C@@H]3C(=O)N(c4ccc(Cc5ccc(N6C(=O)[C@H]7C(c8ccc(C)cc8)=NO[C@H]7C6=O)cc5)cc4)C(=O)[C@H]23)cc1
3. CCOC(=O)C1(NC(=O)OC(C)(C)C)CCc2[nH]oc(=O)c2C1 (stereo not given)
4. CCCCCCCCCCCC(=O)CC(=O)c1c(O)cccc1O
5. O=C(O)c1ccccc1CN1CCCC(C(=O)O)C1 (stereo not given)

1: > 100 µM (inactive); 2: > 100 µM (inactive); 3: > 100 µM (inactive); 4: 19.8 µM (inactive); 5: > 100 µM (inactive)

List GI50 for every entry below, keeping the order given.
1. CO[C@H]1O[C@@H]2CO[C@@H](c3ccccc3)O[C@H]2[C@@H]2CC=CCC[C@]12O
2. COC(=O)/C(C#N)=C1\CCC(O)N1 (stereo not given)
3. CC(C)Oc1ccc2c(c1)OCC1Cc3ccccc3OC21 (stereo not given)
4. Clc1ccc(COC(Cn2ccnc2)c2ccc(Cl)cc2Cl)c(Cl)c1 (stereo not given) [MICONAZOLE NITRATE]
5. COc1cc(NC(C)CCCN)c2nccc(C)c2c1 (stereo not given)
6. Cc1ccn2c(=O)cc(-c3ccccc3)nc2c1

1: 69.7 µM (inactive); 2: > 100 µM (inactive); 3: > 100 µM (inactive); 4: 9.86 µM (inactive); 5: 23.1 µM (inactive); 6: > 100 µM (inactive)

Parameter requested: GI50. Apply to each item below.
1. CC1=NNC(=O)[C@H]2[C@H]1CCC1[C@@H]2CC[C@]2(C)[C@@H](O)CC[C@@H]12 (stereo not given in full)
2. CC1=C(C(=O)NNC(=O)Cc2ccccc2)CC(C(=O)NNC(=O)Cc2ccccc2)=C(C)N1
3. OCCN(CCO)c1ccc2c(C(F)(F)F)cc(C(F)(F)F)nc2n1
4. O=C(O)C(O)C(O)C(O)C(=O)CO (stereo not given)
5. COc1cc2c(cc1OCCCOc1cc3c(cc1OC)C(=O)N1CCC[C@H]1CN3)N=C[C@@H]1CCCN1C2=O

1: > 100 µM (inactive); 2: > 100 µM (inactive); 3: > 100 µM (inactive); 4: > 100 µM (inactive); 5: 0.0929 µM (active)

====

Would you mind telling me the reported GI50 of each entry?
# System: K562
# test description: NCI tumour cell line growth inhibition, 48 h
The source made the active and inactive calls. No stated cut-off is given here; in the data, active = GI50 up to about 1.1 µM and inactive = higher. Where a SMILES comes first, the peptide text is derived from it. The star is where a group is joined. Boc = CC(C)(C)OC(=O)*; OBn = c1ccc(CO*)cc1

Study these solved cases before continuing.
{"columns": ["molecule", "result"],
 "data": [
  ["CC(O)CCCOC(c1ccccc1)(c1ccccc1)c1ccccc1 (stereo unspecified)", "22.9 µM (inactive)"],
  ["COC(=O)CCC(C)[C@H]1CCC2C3CC[C@@H]4CC5(CC[C@]4(C)C3C[C@H](OC(C)=O)[C@@]21C)OOC1(CCCCC1)OO5 (stereo partly specified)", "6.01 µM (inactive)"],
  ["CC(C)CC(NC(=O)OC(C)(C)C)C(=O)N1CCCC1C(=O)OCc1ccccc1 (stereo not drawn) (Boc-Leu-Pro-OBn; configuration not given here)", "35.2 µM (inactive)"],
  ["CC#COP(=O)(OCC)OCC", "> 100 µM (inactive)"],
  ["Cn1c(=O)oc2cc(C(O)CN3CCN(Cc4ccccn4)CC3)c(Cl)cc21 (stereo unspecified)", "> 100 µM (inactive)"]
]}

Answer for every listed entry: what is its GI50? The entries follow.
1. COc1cc(C(C)c2cc3c(cc2OCCN)OCO3)cc(OC)c1OC (stereo unspecified)
2. [O-]c1c2c(nn1-c1ccccc1)c1ccccc1c[n+]2Cc1ccccc1
3. CC(C)(C)C1CCC2c3c([nH]c4ccccc34)C3C(=O)N(c4ccc5c(c4)C(=O)c4ccccc4C5=O)C(=O)C3C2C1 (stereo unspecified)
4. CCOC(=O)N(c1ccccc1)c1cc(=O)n2ccccc2n1
5. CC(C)(C)c1ccccc1N1C(=O)c2ccc3c4c(ccc(c24)C1=O)N(c1ccccc1C(C)(C)C)C3=O
6. COC(=O)C1=C(C(=O)Nc2cccnc2Cl)N(c2ccc(OC)cc2[N+](=O)[O-])C(c2ccc(C)cc2)=CC1c1ccc(OC)cc1OC (stereo unspecified)

1: > 100 µM (inactive); 2: > 100 µM (inactive); 3: > 100 µM (inactive); 4: > 100 µM (inactive); 5: > 100 µM (inactive); 6: 4.67 µM (inactive)

====

# Tested on: HCT-15
Provide the recorded GI50 for the entries that follow.

Previously resolved entries follow.
{"columns": ["compound", "GI50"],
 "data": [
  ["CCC(C)(O)c1cn(-c2ccc(S(=O)(=O)O)cc2)nn1 (centres undefined)", "> 100 µM"],
  ["CC(=O)C1=C(O)C2C3c4c[nH]c5cccc(c45)CC3C(C)(C)N2C1=O (centres undefined)", "34.6 µM"],
  ["O=C(Nc1ccccc1)N(CCN(Cc1ccccc1)C(=O)Nc1ccccc1)CCN(Nc1ccccc1)C(=O)Nc1ccccc1", "> 100 µM"]
]}

Lookup: GI50 / HCT-15 / CCOC(=O)C1N(S(=O)(=O)c2ccc(C)cc2)CCC12c1ccccc1NC2c1ccc(OC)c(OC)c1 (centres undefined)
> 100 µM

This collection of values is drawn from ChEMBL document CHEMBL1201862.
